Measured AC50 (Beta-2 adrenergic receptor (Homo sapiens))

Qu. Param item = CC(=O)c1ccc(S(=O)(=O)NC(=O)NC2CCCCC2)cc1 [ACETOHEXAMIDE] ; retrieve measured AC50.
Ans. > 10 µM

Qu. Do the same for CC(CN1c2ccccc2Sc2ccccc21)N(C)C (stereo not given) please
Ans. > 10 µM

Qu. Do the same for CC(O)(CS(=O)(=O)c1ccc(F)cc1)C(=O)Nc1ccc(C#N)c(C(F)(F)F)c1 (stereo not given) [BICALUTAMIDE] please
Ans. > 30 µM

Qu. Do the same for CC(CN(C)C)C(C)(O)Cc1ccc(Cl)cc1 (stereo not given) please
Ans. > 30 µM

Qu. Do the same for "CN[C@@H](C)[C@@H](O)c1ccccc1" please
Ans. > 10 µM

###

Consider the following compounds; for each one, report its AC50.
testedTarget: UniProt P30556
Sequence (P30556 whole entry): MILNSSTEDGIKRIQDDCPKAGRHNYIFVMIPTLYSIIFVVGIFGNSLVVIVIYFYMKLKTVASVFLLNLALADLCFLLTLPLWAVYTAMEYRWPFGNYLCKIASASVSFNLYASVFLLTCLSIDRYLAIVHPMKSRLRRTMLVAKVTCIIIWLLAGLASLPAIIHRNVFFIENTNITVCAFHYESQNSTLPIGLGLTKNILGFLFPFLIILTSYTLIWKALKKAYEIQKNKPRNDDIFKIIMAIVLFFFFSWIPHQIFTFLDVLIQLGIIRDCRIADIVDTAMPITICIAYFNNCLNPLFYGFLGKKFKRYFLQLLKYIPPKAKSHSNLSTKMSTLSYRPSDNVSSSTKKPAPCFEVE

Qu. Param item = NC(=O)NC(=O)Cc1ccccc1 [PHENACEMIDE] ; retrieve measured AC50.
Ans. > 10 µM

Qu. Do the same for C=CCN1CCc2nc(N)sc2CC1 [TALIPEXOLE] please
Ans. > 30 µM

Qu. Do the same for "S=P(N1CC1)(N1CC1)N1CC1" please
Ans. > 30 µM

Qu. Do the same for O=C1Nc2ccc(Cl)cc2C(c2ccccc2Cl)=NC1O (stereo not given) please
Ans. > 30 µM

Qu. Do the same for "O=c1c(O)c(-c2ccc(O)c(O)c2)oc2cc(O)cc(O)c12" please
Ans. > 30 µM

###

Measured AC50 (Neuronal acetylcholine receptor subunit alpha-4 (Homo sapiens))

Qu. Reported AC50 for Neuronal acetylcholine receptor subunit alpha-4 (Homo sapiens), given "O=C(/C=C/c1cccc(S(=O)(=O)Nc2ccccc2)c1)NO" ?
Ans. > 10 µM

Qu. Do the same for COC(=O)C1=C(C)NC(C)=C(C(=O)OCCN2CCN(C(c3ccccc3)c3ccccc3)CC2)C1c1cccc([N+](=O)[O-])c1 (centres undefined) please
Ans. > 30 µM

Qu. Do the same for "Cc1cc(C)nc(NS(=O)(=O)c2ccc(N)cc2)n1" please
Ans. > 10 µM

Qu. Do the same for CCOC(=O)C(C)(C)Oc1ccc(Cl)cc1 [CLOFIBRATE] please
Ans. > 10 µM

Qu. Do the same for "CCOC(=O)C1=C(C)NC(C)=C(C(=O)OCC)C1c1ccccc1/C=C/C(=O)OC(C)(C)C" please
Ans. > 30 µM

Qu. Do the same for "O=C1c2ccccc2C(=O)C1c1ccccc1" please
Ans. > 10 µM

Qu. Do the same for O=C(O)CCNC(=O)c1ccc(/N=N/c2ccc(O)c(C(=O)O)c2)cc1 [BALSALAZIDE] please
Ans. > 30 µM

Qu. Do the same for "CNC(=C[N+](=O)[O-])NCCSCc1csc(CN(C)C)n1" please
Ans. > 10 µM

Qu. Do the same for "Clc1ccc(Cn2c(CN3CCCC3)nc3ccccc32)cc1" please
Ans. > 10 µM

###

testedTarget: 5-hydroxytryptamine receptor 2B (Homo sapiens, UniProt P41595); also: assay procedure not described here
Sequence (P41595 whole entry): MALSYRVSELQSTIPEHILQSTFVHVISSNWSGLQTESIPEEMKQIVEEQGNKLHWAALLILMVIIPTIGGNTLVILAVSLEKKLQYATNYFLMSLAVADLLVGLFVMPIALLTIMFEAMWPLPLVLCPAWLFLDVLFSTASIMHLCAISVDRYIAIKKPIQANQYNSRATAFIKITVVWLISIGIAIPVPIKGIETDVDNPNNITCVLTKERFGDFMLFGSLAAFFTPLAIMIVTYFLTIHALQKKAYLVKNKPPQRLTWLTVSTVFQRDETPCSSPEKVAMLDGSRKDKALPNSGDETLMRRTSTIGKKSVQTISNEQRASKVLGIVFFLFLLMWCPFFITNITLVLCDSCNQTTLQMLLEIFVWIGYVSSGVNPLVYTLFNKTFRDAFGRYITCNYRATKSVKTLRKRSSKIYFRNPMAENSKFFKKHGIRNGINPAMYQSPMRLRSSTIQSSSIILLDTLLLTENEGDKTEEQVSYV
Assay type: functional, cell-based
Consider the following molecules; for each one, report its AC50.

Qu. Param item = CC(C)[C@@H](C)/C=C/[C@@H](C)[C@H]1CC[C@H]2/C(=C/C=C3\C[C@@H](O)CC[C@@H]3C)CCC[C@]12C [DIHYDROTACHYSTEROL] ; retrieve measured AC50.
Ans. > 10 µM

Qu. Do the same for "O=C(O)Cc1ccccc1Nc1c(Cl)cccc1Cl" please
Ans. > 10 µM

Qu. Do the same for "CCC1(CCC(C)C)C(=O)NC(=O)NC1=O" please
Ans. > 10 µM

Qu. Do the same for "O=C(NCCO[N+](=O)[O-])c1cccnc1" please
Ans. > 30 µM

Qu. Do the same for "CCCc1nc2c(C)cc(-c3nc4ccccc4n3C)cc2n1Cc1ccc(-c2ccccc2C(=O)O)cc1" please
Ans. 6.33 µM

Qu. Do the same for "CC/C=C\C/C=C\C/C=C\C/C=C\C/C=C\CCCC(=O)OCC" please
Ans. > 30 µM

Qu. Do the same for "CN(C)C/C=C/C(=O)Nc1cc2c(Nc3ccc(F)c(Cl)c3)ncnc2cc1O[C@H]1CCOC1" please
Ans. > 30 µM

Qu. Do the same for "COc1ccc(C2C(=O)c3ccccc3C2=O)cc1" please
Ans. > 10 µM

Qu. Do the same for CN(Cc1cnc2nc(N)nc(N)c2n1)c1ccc(C(=O)N[C@@H](CCC(=O)O)C(=O)O)cc1 [METHOTREXATE] please
Ans. > 10 µM

Cited source: ChEMBL document CHEMBL5291721
